normalized growth reference
assay: chemical genetic growth profiling, strain panel (AID 1159580);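 further: tested at 20 µM; growth read once vehicle control cultures reached saturation at 30 °C; 1 = growth at the plate median or of vehicle wells; lower values mean less growth of the strain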; conditions: S. cerevisiae deletion strains, growth OD, locus YHR030C, strain SLT2, active compounds read low
Hit rate of the full screen: of about 5,500 compounds, about 2,000 (36%) were called active. Roughly 18% stayed inconclusive and do not appear here. The list shows a part of the results.

{"SMILES_RECORD": "Cn1nccc1NS(=O)(=O)c1cccc(Cl)c1", "normalized growth": 1.07}
{"SMILES_RECORD": "Cc1cccc(Nc2ccncc2S(=O)(=O)NC(=O)NC(C)C)c1", "normalized growth": 1.01}
{"SMILES_RECORD": "Cc1cc(NS(=O)(=O)c2ccc(NS(=O)(=O)c3ccc(Cl)cc3)cc2)no1", "normalized growth": 1.07}

###

test: chemical genetic growth profiling, strain panel (AID 1159580);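 further: tested at 20 µM; growth read once vehicle control cultures reached saturation at 30 °C; 1 = growth at the plate median or of vehicle wells; lower values mean less growth of the strain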; details: S. cerevisiae deletion strains, growth OD, locus YHR094C, strain hxt1, active compounds read low
About 2,000 (36%) of roughly 5,500 compounds were called active. Inconclusive results (about 18%) are left out. This is one part of the list.

{"MOLECULE": "COC(=O)c1c(C)cc(OC(=O)c2c(C)cc(O)c(C=O)c2O)c(C)c1O", "normalized growth": 1}
{"MOLECULE": "COc1cc(S(C)=O)ccc1-c1nc2ncccc2[nH]1 (stereo not given)", "normalized growth": 0.99}
{"MOLECULE": "COc1ccc(C(=O)CC(=O)c2ccc(C(C)(C)C)cc2)cc1", "normalized growth": 1}
{"MOLECULE": "CC(=O)Nc1ccccc1", "normalized growth": 0.988}
{"MOLECULE": "CN(C)N=Nc1nc[nH]c1C(N)=O", "normalized growth": 0.999}
{"MOLECULE": "CCN(CC)CCOC(=O)C(c1ccccc1)c1ccccc1", "normalized growth": 0.993}
{"MOLECULE": "NC(N)=NCCCC(NC(=O)C(N)Cc1ccc(O)cc1)C(=O)O (stereo not given)", "normalized growth": 0.985}
{"MOLECULE": "COc1cc2c(cc1O)C(Cc1ccc(O)cc1)N(C)CC2 (stereo not given)", "normalized growth": 0.982}
{"MOLECULE": "CC(=O)OCC(=O)[C@@]1(O)[C@H](OC(C)=O)CC2C3CCC4=CC(=O)C=C[C@]4(C)[C@@]3(F)[C@@H](O)C[C@@]21C (stereo not given in full)", "normalized growth": 1.01}
{"MOLECULE": "COC(=O)c1c(C)cc(OC(=O)c2c(C)c(Cl)c(O)c(C=O)c2O)c(C)c1O", "normalized growth": 0.987}
{"MOLECULE": "CN(C)CCOC(=O)COc1ccc(Cl)cc1", "normalized growth": 1.02}
{"MOLECULE": "CC1(C)C(=O)C=C[C@@]2(C)C1CC(=O)[C@@]1(C)C3=CC(=O)O[C@@H](c4ccoc4)[C@]3(C)CCC12 (stereo not given in full)", "normalized growth": 0.991}
{"MOLECULE": "COC(=O)CCC(=O)O[C@H]1CCC2(C)C(CCC3C2C(=O)[C@@H](O)C2(C)C3CC3OC4(CCC(C)CO4)[C@@H](C)C32)C1 (stereo not given in full)", "normalized growth": 0.998}
{"MOLECULE": "CN(C)CCOC(=O)C(c1ccccc1)C1(O)CCCC1 (stereo not given)", "normalized growth": 1.02}
{"MOLECULE": "CN(C(=O)CN(CCO)CC(=O)N(C)C(C)(C)Cc1ccccc1)C(C)(C)Cc1ccccc1", "normalized growth": 0.99}
{"MOLECULE": "COc1ccc(C(=O)N2CCCC2=O)cc1", "normalized growth": 0.991}
{"MOLECULE": "NC(N)=O", "normalized growth": 0.996}
{"MOLECULE": "COC(=O)CCCOc1ccc(Cl)cc1Cl", "normalized growth": 0.985}
{"MOLECULE": "CC12CC3CC(C)(C1)CC(N)(C3)C2", "normalized growth": 1.01}
{"MOLECULE": "O=C(O)CCCOc1ccc(Cl)cc1Cl", "normalized growth": 1.01}

###

assay: chemical genetic growth profiling, strain panel (AID 1159580);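 further: tested at 20 µM; growth read once vehicle control cultures reached saturation at 30 °C; 1 = growth at the plate median or of vehicle wells; lower values mean less growth of the strain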; conditions: S. cerevisiae deletion strains, growth OD, locus YCR088W, strain abp1, active compounds read low
Hit rate of the full screen: of about 5,500 compounds, about 2,000 (36%) were called active. Not shown: some 18% with an inconclusive outcome. The list shows a part of the results.
READOUT_TYPE: normalized growth

{"COMPOUND": "CN(C)C(=O)Nc1ccc(Cl)c(Cl)c1", "READING": 0.991}
{"COMPOUND": "CN(CCC(N)CC(=O)N[C@H]1C=CC(n2ccc(N)nc2=O)O[C@@H]1C(=O)O)C(=N)N (stereo partly specified)", "READING": 0.962}
{"COMPOUND": "CCC(=O)Nc1ccc(Cl)c(Cl)c1", "READING": 0.99}
{"COMPOUND": "C[C@H](N)[C@H](O)c1cccc(O)c1", "READING": 1}
{"COMPOUND": "CC(CN(C)C)CN1c2ccccc2Sc2ccccc21 (stereo unspecified)", "READING": 1.02}
{"COMPOUND": "CN(C)CCOC(=O)COc1ccc(Cl)cc1", "READING": 0.956}
{"COMPOUND": "C=C1C2CCC3(C)C(c4ccoc4)OC(=O)CC13OC1CC(OC(C)=O)C(C)(C)C(CC(=O)OC)C12C (stereo unspecified)", "READING": 1.01}
{"COMPOUND": "O=c1cc(-c2ccccc2)oc2c(O)c(O)ccc12", "READING": 0.991}
{"COMPOUND": "Cc1cc(=O)oc2c(O)c(O)ccc12", "READING": 0.965}
{"COMPOUND": "COc1cc([C@@H]2c3cc4c(cc3[C@H](OC(C)=O)[C@H]3COC(=O)[C@@H]23)OCO4)cc(OC)c1OC", "READING": 0.982}
{"COMPOUND": "C[C@@H]1CC2C3CCC4=CC(=O)C=C[C@]4(C)[C@@]3(F)[C@@H](O)C[C@]2(C)[C@H]1C(=O)CO (stereo partly specified)", "READING": 0.992}
{"COMPOUND": "O=c1cc(-c2ccc(O)cc2)oc2cc(O)ccc12", "READING": 0.957}
{"COMPOUND": "O=C(O)c1ccccc1C(=O)Nc1ccc(S(=O)(=O)Nc2nccs2)cc1", "READING": 0.987}
{"COMPOUND": "NC(N)=O", "READING": 1.01}
{"COMPOUND": "CC(C)CCCC(C)C1CCC2C3CC[C@H]4CCCC[C@]4(C)C3CC[C@]12C (stereo partly specified)", "READING": 1.01}
{"COMPOUND": "C[C@H](CCC(=O)O)[C@H]1CCC2C3C(CC[C@@]21C)[C@@]1(C)CC[C@@H](O)C[C@H]1C[C@@H]3O (stereo partly specified)", "READING": 0.989}
{"COMPOUND": "CC(CCC(=O)O)[C@H]1CCC2C3C[C@H](O)[C@@H]4C[C@H](O)CC[C@]4(C)C3CC[C@@]21C (stereo partly specified)", "READING": 0.993}
{"COMPOUND": "COC(=O)CCC(C)[C@H]1CCC2C3C(C[C@H](O)[C@@]21C)[C@@]1(C)CC[C@@H](O)C[C@H]1C[C@H]3O (stereo partly specified)", "READING": 1.02}
{"COMPOUND": "CN(C)CCOC(=O)C(c1ccccc1)C1(O)CCCC1 (stereo unspecified)", "READING": 0.981}
{"COMPOUND": "Nc1ccncc1", "READING": 0.981}
{"COMPOUND": "CC(=O)OCC(=O)[C@@]1(O)[C@H](OC(C)=O)CC2C3CCC4=CC(=O)C=C[C@]4(C)[C@@]3(F)[C@@H](O)C[C@@]21C (stereo partly specified)", "READING": 0.987}
{"COMPOUND": "O=[N+]([O-])c1cccc2cn[nH]c12", "READING": 0.98}
{"COMPOUND": "C[C@@H](N)[C@@H](O)c1ccccc1", "READING": 0.992}
{"COMPOUND": "CC12CC3CC(C)(C1)CC(N)(C3)C2", "READING": 0.982}
{"COMPOUND": "C=C1C2CC[C@@]3(C)[C@H](c4ccoc4)OC(=O)C[C@]13O[C@H]1CC(O)C(C)(C)C(CC(=O)OC)[C@@]21C (stereo partly specified)", "READING": 0.977}
{"COMPOUND": "O=c1cc(-c2ccc(O)cc2)oc2cc(O)cc(O)c12", "READING": 0.987}
{"COMPOUND": "COc1cc(OC)c(OC)cc1C=O", "READING": 0.999}
{"COMPOUND": "C=C1[C@H]2CC[C@@]3(C)[C@H](c4ccoc4)OC(=O)C[C@]13O[C@H]1C[C@H](O)C(C)(C)[C@H](CC(=O)OC)[C@]12C", "READING": 1.02}
{"COMPOUND": "C=C[C@H]1CN2CC[C@H]1C[C@@H]2[C@H](O)c1ccnc2ccccc12", "READING": 0.994}
{"COMPOUND": "NCC(CC(=O)O)c1ccc(Cl)cc1 (stereo unspecified)", "READING": 1}
{"COMPOUND": "Nc1ccn(C2O[C@H](CO)[C@@H](O)[C@H]2O)c(=O)n1 (stereo partly specified)", "READING": 0.985}
{"COMPOUND": "CC(CCC(=O)O)[C@H]1CCC2C3CC[C@@H]4C[C@H](O)CC[C@]4(C)C3CC[C@@]21C (stereo partly specified)", "READING": 0.993}
{"COMPOUND": "COc1c(Cl)ccc(Cl)c1C(=O)O", "READING": 0.978}
{"COMPOUND": "CC[C@H](CCC(C)[C@H]1CCC2C3CCC4C[C@@H](O)CC[C@]4(C)C3CC[C@@]21C)C(C)C (stereo partly specified)", "READING": 0.988}
{"COMPOUND": "C[C@@H]1CC2C3C[C@H](F)C4=CC(=O)C=C[C@]4(C)[C@@]3(F)[C@@H](O)C[C@]2(C)[C@@]1(O)C(=O)COC(=O)C(C)(C)C (stereo partly specified)", "READING": 1.01}
{"COMPOUND": "Nc1cc(-c2ccncc2)c[nH]c1=O", "READING": 0.925}
